# assayed-system: Thrombin prepared from human plasma (Homo sapiens)
# Construct: Thrombin used in this test was prepared from human plasma
# experiment-notes: In vitro enzyme assay for thrombin inhibition constants (Chromozym TH substrate, Dixon plot)
# measurement-setup: pH 7.8, room temperature
Hi there, I'd appreciate the recorded pKi for every entry that follows.
// returns pKi (minus log10 of molar concentration), number only

# value lookup — system Thrombin prepared from human plasma (Homo sapiens), readout pKi, item NN=C(N)c1ccc(CNC(=O)[C@@H]2CCCN2C(=O)[C@H](N)C(c2ccccc2)c2ccccc2)s1 [Example 43]
8.04

# value lookup — system Thrombin prepared from human plasma (Homo sapiens), readout pKi, item CS(=O)(=O)N[C@@H](C(=O)N1CCC[C@H]1C(=O)NCc1cc(C(=N)N)cs1)C(c1ccccc1)c1ccccc1 [Example 12]
10.40

# value lookup — system Thrombin prepared from human plasma (Homo sapiens), readout pKi, item C=CCOC(=O)N[C@@H](C(=O)N1CCC[C@H]1C(=O)NCc1ccc(C(=N)N)s1)C(c1ccccc1)c1ccccc1 [Example 21]
10.77

# value lookup — system Thrombin prepared from human plasma (Homo sapiens), readout pKi, item CS(=O)(=O)N[C@@H](C(=O)N1CCC[C@H]1C(=O)NCc1csc(C(=N)N)c1)C(c1ccccc1)c1ccccc1 [Example 16]
10.35

# value lookup — system Thrombin prepared from human plasma (Homo sapiens), readout pKi, item CC(C)(C)OC(=O)CN[C@@H](C(=O)N1CCC[C@H]1C(=O)NCc1ccc(C(=N)N)s1)C(c1ccccc1)c1ccccc1 [Example 28]
10.21

# value lookup — system Thrombin prepared from human plasma (Homo sapiens), readout pKi, item CS(=O)(=O)N[C@@H](C(=O)N1CCC[C@H]1C(=O)NCc1csc(C(=N)N)c1)C1CCCCC1 [Example 26]
8.34

# value lookup — system Thrombin prepared from human plasma (Homo sapiens), readout pKi, item N=C(N)c1ccc(CNC(=O)[C@@H]2CCCN2C(=O)[C@H](NS(=O)(=O)O)C(c2ccccc2)c2ccccc2)s1 [Example 31]
10.00

# value lookup — system Thrombin prepared from human plasma (Homo sapiens), readout pKi, item CS(=O)(=O)N[C@H](Cc1ccccc1)C(=O)N1CCC[C@H]1C(=O)NCc1ccc(C(N)=NN)s1 [Example 44]
6.40

# value lookup — system Thrombin prepared from human plasma (Homo sapiens), readout pKi, item CS(=O)(=O)N[C@@H](C(=O)N1CCC[C@H]1C(=O)NCc1ccc(C(=N)N)s1)C(c1ccccc1)c1ccccc1 [Example 3]
11.40

# value lookup — system Thrombin prepared from human plasma (Homo sapiens), readout pKi, item CC(C)(C)OC(=O)N[C@@H](C(=O)N1CCC[C@H]1C(=O)NCc1ccc(C(=N)N)s1)C(c1ccccc1)c1ccccc1 [Example 7]
11.15

# value lookup — system Thrombin prepared from human plasma (Homo sapiens), readout pKi, item CS(=O)(=O)N[C@@H](C(=O)N1CCC[C@H]1C(=O)NCc1ccc(C(=N)N)o1)C(c1ccccc1)c1ccccc1 [Example 34]
8.85

# value lookup — system Thrombin prepared from human plasma (Homo sapiens), readout pKi, item CC(C)(C)OC(=O)N[C@@H](C(=O)N1CCC[C@H]1C(=O)NCc1ccc(C(N)=NN)s1)C(c1ccccc1)c1ccccc1 [Example 42]
7.08

# value lookup — system Thrombin prepared from human plasma (Homo sapiens), readout pKi, item N=C(N)c1ccc(CNC(=O)[C@@H]2CCCN2C(=O)[C@H](NCCC(=O)O)C(c2ccccc2)c2ccccc2)s1 [Example 41]
10.96

# value lookup — system Thrombin prepared from human plasma (Homo sapiens), readout pKi, item COC(=O)N[C@@H](C(=O)N1CCC[C@H]1C(=O)NCc1ccc(C(=N)N)s1)C(c1ccccc1)c1ccccc1 [Example 8]
10.85
